Attribution: the supplement of paper PMC9950053

# Test system: Danio rerio larvae (5 dpf)
# assayOverview: excitability (activity period 17 minus period 16, 1-s interval sound) minus DMSO control (percentage points); higher = more acoustic excitability than DMSO larvae
# runParameters: 10 µM; exposure time: 3 h pre-incubation + 3 h imaging
Where a name gives a salt, the structure may show the parent alone.
Output MET for excitability not less than 3; output NOT MET otherwise.

Completed entries (count: 4):
>>> category("CN1CC2c3ccccc3Oc3ccc(Cl)cc3C2C1 (stereo not given) [Asenapine maleate]")
"MET"
>>> category("Nc1ccn([C@@H]2O[C@H](CO)[C@@H](O)C2(F)F)c(=O)n1 [Gemcitabine hydrochloride]")
"NOT MET"
>>> category("COc1ccccc1OCCNCC(O)COc1cccc2[nH]c3ccccc3c12 (stereo not given)")
"MET"
>>> category("O=C(O[C@@H]1C[C@@H]2C[C@H]3C[C@H](C1)N2CC3=O)c1c[nH]c2ccccc12 [Dolasetron mesylate]")
"MET"

Is the recorded value of excitability equal to or greater than 3 for this molecule? NC(=O)c1ncn([C@@H]2O[C@H](CO)[C@@H](O)[C@H]2O)n1
MET

* * *

This listing pairs compounds with measured startle.
# System: Danio rerio larvae (5 dpf)
# assayOverview: startle (activity period 16 minus period 15, 20-s interval sound) minus DMSO control (percentage points); higher = stronger startle response than DMSO larvae
# runParameters: 10 µM; exposure time: 3 h pre-incubation + 3 h imaging
Counter-ions that a name gives are not always drawn.
Lab note: record just the number, no unit beside it.

>>> numericresult("OCc1cc(C(O)CNCCCCCCOCCCCc2ccccc2)ccc1O (centres undefined) [Salmeterol xinafoate]")
-4.63
>>> numericresult("CC(C)OC(=O)C(C)(C)Oc1ccc(C(=O)c2ccc(Cl)cc2)cc1 [Fenofibrate]")
-5.75
>>> numericresult("Clc1ccc2nsnc2c1NC1=NCCN1 [Tizanidine hydrochloride]")
-2.98

Then this compound:
What startle value was documented for this compound, OC(c1cc(C(F)(F)F)nc2c(C(F)(F)F)cccc12)C1CCCCN1 (centres undefined) [Mefloquine hydrochloride] ?
-13.1

* * *

# System: Danio rerio larvae (5 dpf)
# assayOverview: 1-h baseline activity (% time moving, periods 1-6) minus DMSO control (percentage points); higher = more locomotor activity than DMSO larvae
# runParameters: 10 µM; exposure time: 3 h pre-incubation + 3 h imaging
Think of 1 as a floor: if 1-h baseline activity stands on it or above, it is Yes; beneath it, No.

Past entries and their recorded results:
>>> category("CO[C@H]1/C=C/O[C@@]2(C)Oc3c(C)c(O)c4c(O)c(c5c(nc6cc(C)ccn65)c4c3C2=O)NC(=O)/C(C)=C\\C=C\\[C@H](C)[C@H](O)[C@@H](C)[C@@H](O)[C@@H](C)[C@H](OC(C)=O)[C@@H]1C")
"No"
>>> category("CN1CCN(CCCN2c3ccccc3Sc3ccc(Cl)cc32)CC1 [Prochlorperazine dimaleate]")
"Yes"
>>> category("NC(=O)c1ncn([C@@H]2O[C@H](CO)[C@@H](O)[C@H]2O)n1")
"Yes"
>>> category("CC(=O)O[C@]1(C(C)=O)CC[C@H]2[C@@H]3C=C(C)C4=CC(=O)CC[C@]4(C)[C@H]3CC[C@@]21C [Megestrol Acetate]")
"No"
>>> category("CCC(C)(C)C(=O)O[C@H]1C[C@@H](C)C=C2C=C[C@H](C)[C@H](CC[C@@H]3C[C@@H](O)CC(=O)O3)[C@H]21")
"Yes"

Could you tell me if the measured 1-h baseline activity of CNC(=O)c1ccccc1Sc1ccc2c(/C=C/c3ccccn3)n[nH]c2c1 reaches 1 or more?
No

Quick check, 1-h baseline activity >= 1? CCOC(=O)[C@H](CCc1ccccc1)N[C@@H](C)C(=O)N1[C@H](C(=O)O)C[C@@H]2CCC[C@@H]21
Yes

Evaluate CN1CCN2c3ncccc3Cc3ccccc3C2C1 (stereo not drawn) : 1-h baseline activity at minimum 1?
Yes
